Target: PDE4B (Homo sapiens, UniProt Q07343)
Construct: Whole cell extracts were prepared using an immunoprecipitation (IP) lysis buffer; endogenous in cells; host or cells: A549
Sequence (Q07343 whole entry): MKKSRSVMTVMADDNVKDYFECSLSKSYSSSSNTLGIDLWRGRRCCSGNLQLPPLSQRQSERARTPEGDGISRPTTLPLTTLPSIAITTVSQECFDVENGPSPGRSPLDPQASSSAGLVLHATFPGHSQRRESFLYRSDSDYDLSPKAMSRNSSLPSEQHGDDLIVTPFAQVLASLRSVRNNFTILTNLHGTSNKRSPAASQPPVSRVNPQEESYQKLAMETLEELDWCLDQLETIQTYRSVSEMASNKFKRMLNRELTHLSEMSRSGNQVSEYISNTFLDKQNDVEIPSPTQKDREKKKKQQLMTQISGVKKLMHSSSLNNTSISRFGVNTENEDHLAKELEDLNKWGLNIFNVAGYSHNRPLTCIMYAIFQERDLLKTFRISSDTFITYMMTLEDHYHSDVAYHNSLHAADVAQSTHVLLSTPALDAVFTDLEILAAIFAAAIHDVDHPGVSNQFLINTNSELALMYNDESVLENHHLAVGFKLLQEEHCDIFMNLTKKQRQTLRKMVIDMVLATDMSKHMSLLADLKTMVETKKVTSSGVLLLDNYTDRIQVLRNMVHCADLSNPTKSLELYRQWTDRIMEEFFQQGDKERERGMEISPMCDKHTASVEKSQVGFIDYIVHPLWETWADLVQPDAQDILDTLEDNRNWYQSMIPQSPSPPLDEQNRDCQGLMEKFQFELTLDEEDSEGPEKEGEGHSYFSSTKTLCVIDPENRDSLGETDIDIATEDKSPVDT
Assay: Protein degradation assay in A549 cells, western blot, PDE4B
Assay type: cell-based
Details: 24 h treatment, read-out: PDE4B degradation relative to DMSO
Experimental: A549 cells were grown in RPMI 1640 media supplemented with 10% fetal bovine serum, streptomycin, and penicillin. The cells were plated in 6-well plates in the growth media. The next day, fresh growth media were replaced on the cells. […] For a western blot analysis, the whole cell protein extracts were separated on 4-12% SDS-polyacrylamide gels, transferred to nitrocellulose, and probed with primary antibodies. […] The signals were detected using an ODYSSEY® Imaging System. […]
Parameter Dmax: see the listing below.

{"columns": ["molecule", "experimental system", "Dmax"],
 "data": [
  ["CCOc1cc([C@@H](CS(C)(=O)=O)N2C(=O)c3cc(CCCCCCCN4CCC(c5cc(F)cc6c5CN(C5CCC(=O)NC5=O)C6=O)CC4)cc(NC(C)=O)c3C2=O)ccc1OC (stereo partly drawn) [Compound B2]", "PDE4B (Homo sapiens, UniProt Q07343)", "≤ 50%"],
  ["O=C1CCC(N2Cc3c(cc(F)cc3C3CCN(CCCCCCCOc4ccc(N5Cc6sccc6C5=O)cc4OC4CCCC4)CC3)C2=O)C(=O)N1 (stereo not drawn) [Compound B91]", "PDE4B (Homo sapiens, UniProt Q07343)", "≤ 50%"],
  ["COc1ccc(N2C(=O)c3ccc(N)cc3C2=O)cc1OCCCCCCCN1CCC(c2cc(F)cc3c2CN(C2CCC(=O)NC2=O)C3=O)CC1 (stereo not drawn) [Compound B52]", "PDE4B (Homo sapiens, UniProt Q07343)", "≤ 50%"]
]}

====

molecular target: PDE4B (Homo sapiens); construct: Whole cell extracts were prepared using an immunoprecipitation (IP) lysis buffer; endogenous in cells; host or cells: A549; experiment: Protein degradation assay in A549 cells, western blot, PDE4B; type: cell-based; details: 24 h treatment, read-out: PDE4B degradation relative to DMSO
Catalogue of Dmax readings, one per entry.

{"columns": ["compound", "Dmax"],
 "data": [
  ["O=C1CCC(N2Cc3c(cc(F)cc3C3CCN(CCCCCCCOc4cc(C(=O)Nc5c(Cl)cncc5Cl)ccc4OC(F)F)CC3)C2=O)C(=O)N1 (stereo not drawn) [Compound B4]", "≤ 50%"],
  ["COc1ccc(N2C(=O)c3ccccc3C2=O)cc1OCCCCCCCN1CCC(c2cc(F)cc3c2CN(C2CCC(=O)NC2=O)C3=O)CC1 (stereo not drawn) [Compound B51]", "≤ 50%"],
  ["O=C1CCC(N2Cc3c(cc(F)cc3C3CCN(CCCCCCCN(C(=O)c4ccc(OC(F)F)c(OCC5CC5)c4)c4c(Cl)cncc4Cl)CC3)C2=O)C(=O)N1 (stereo not drawn) [Compound B3]", "≤ 50%"]
]}
